Parameter: IC50. Scope: all listed entries.
- TARGET_ENTITY: CXCR7 (Homo sapiens)
- PROTOCOL_DETAILS: CXCR7 β-arrestin recruitment assay in CHO-CXCR7 cells (ProLink/EA β-galactosidase complementation), induced by human SDF-1a
- EXPERIMENTAL_PARAMETERS: assay buffer, SDF-1a at EC50 concentration

Past entries and their recorded results:
Cc1cc(C)nc(C(C)(C)NC(=O)CC2(NC(=O)c3nnc(-c4ccc(F)cc4F)o3)CN([C@H]3CC[C@](C)(O)CC3)C2)n1 [Example 1.055] : 100 to 1000 nM
Cc1ccc(F)c(C(C)(C)NC(=O)CC2(NC(=O)c3nnc(-c4ccc(F)cc4F)s3)CN([C@H]3CC[C@](C)(O)CC3)C2)n1 [Example 1.005] : < 5 nM
Cc1ccc(C(C)(C)NC(=O)CC2(NC(=O)c3cc(-c4ccc(F)cc4F)on3)CN([C@H]3CC[C@@](C)(O)CC3)C2)cc1 [Example 1.242] : 100 to 1000 nM
CC(C)(NC(=O)CC1(NC(=O)c2cc(-c3ccc(F)cc3F)on2)CN([C@H]2CC[C@](C)(O)CC2)C1)c1ccnc2[nH]ccc12 [Example 1.101] : 5 to 100 nM
Cn1ccc2c(C(C)(C)NC(=O)CC3(NC(=O)c4cc(-c5ccc(F)cc5F)on4)CN([C@H]4CC[C@](C)(O)CC4)C3)cccc21 [Example 1.126] : 5 to 100 nM
CC(C)(NC(=O)CC1(NC(=O)c2cc(-c3ccc(F)cc3F)on2)CN([C@H]2CC[C@@](C)(O)CC2)C1)c1cnccn1 [Example 1.157] : 5 to 100 nM

Which IC50 is reported for this compound? Cc1ccnc(C(C)(C)NC(=O)CC2(NC(=O)c3cc(-c4ccc(F)cc4F)on3)CN([C@H]3CC[C@@](C)(O)CC3)C2)c1 [Example 1.163]
< 5 nM

# lookup: IC50 of CC(C)(NC(=O)CC1(NC(=O)c2cc(-c3ccc(F)cc3)on2)CN([C@H]2CC[C@@](C)(O)CC2)C1)c1ccccc1 [Example 1.089]
5 to 100 nM

Consider the compound Cn1ccc2c(C(C)(C)NC(=O)CC3(NC(=O)c4cc(-c5ccc(F)cc5F)on4)CN([C@H]4CC[C@@](C)(O)CC4)C3)cccc21 [Example 1.125] and give its measured IC50.
5 to 100 nM

Bench note: what IC50 did COc1ccc(F)c(C(C)(C)NC(=O)CC2(NC(=O)c3cc(-c4ccc(F)cc4F)on3)CN([C@H]3CC[C@](C)(O)CC3)C2)c1 [Example 1.206] show?
5 to 100 nM

Can you look up the measured IC50 of CC(C)(NC(=O)CC1(NC(=O)c2cc(-c3ccc(F)cc3F)on2)CN([C@H]2CC[C@@](C)(O)CC2)C1)c1cccc2cc[nH]c12 [Example 1.115] for me?
< 5 nM

Could you tell me which IC50 is on file for COc1cc(F)cc(C(C)(C)NC(=O)CC2(NC(=O)c3cc(-c4ccc(F)cc4F)on3)CN([C@H]3CC[C@@](C)(O)CC3)C2)c1 [Example 1.169] ?
< 5 nM

Using the record for CC(C)(NC(=O)CC1(NC(=O)c2nnc(-c3ccc(F)cc3F)s2)CN([C@H]2CC[C@](C)(O)CC2)C1)c1ncccc1F [Example 1.022] , report its IC50.
5 to 100 nM

What does the record list as IC50 for CC(C)(NC(=O)CC1(NC(=O)c2csc(-c3ccc(F)cc3F)n2)CN([C@H]2CC[C@](C)(O)CC2)C1)c1cccc(Cl)c1 [Example 1.051] ?
1000 to 20000 nM

Look up IC50 for this compound: CC(C)N1CC(CC(=O)NC2(c3ncccn3)CC2)(NC(=O)c2cc(-c3ccc(F)cc3F)on2)C1 [Example 1.333]
100 to 1000 nM

Consider the compound shown here: CC(C)(NC(=O)CC1(NC(=O)c2cc(-c3ccc(F)cc3F)on2)CN([C@H]2CC[C@@](C)(O)CC2)C1)c1ccccn1 [Example 1.192] What is its recorded IC50?
< 5 nM

====

- TARGET_ENTITY: CXCR7 (Homo sapiens)
- PROTOCOL_DETAILS: CXCR7 β-arrestin recruitment assay in CHO-CXCR7 cells (ProLink/EA β-galactosidase complementation), induced by human SDF-1a
- EXPERIMENTAL_PARAMETERS: assay buffer, SDF-1a at EC50 concentration
In this section we review reported IC50 values for a set of molecules.

Example entries begin here.
CC(C)(NC(=O)CC1(NC(=O)c2noc(-c3ccc(F)cc3F)n2)CN([C@H]2CC[C@](C)(O)CC2)C1)c1ccccc1 [Example 1.078] : 100 to 1000 nM
Cc1cccc(C(C)(C)NC(=O)CC2(NC(=O)c3cc(-c4ccc(F)cc4F)on3)CN([C@H]3CC[C@@](C)(O)CC3)C2)c1 [Example 1.214] : < 5 nM
CC(C)CN1CC(CC(=O)NC(C)(C)c2cccc(Cl)c2)(NC(=O)c2cc(-c3ccc(F)cc3F)on2)C1 [Example 1.120] : 5 to 100 nM
COc1ccc(C(C)(C)NC(=O)CC2(NC(=O)c3cc(-c4ccc(F)cc4F)on3)CN([C@H]3CC[C@](C)(O)CC3)C2)cc1 [Example 1.244] : 1000 to 20000 nM
CC(C)(NC(=O)CC1(NC(=O)c2nnc(-c3ccc(F)cc3F)s2)CN([C@H]2CC[C@](C)(O)CC2)C1)c1cc(F)ccc1F [Example 1.024] : 5 to 100 nM
Cc1cccc(C(C)(C)NC(=O)CC2(NC(=O)c3cc(-c4ccc(F)cc4F)on3)CN(C3CCC4(CC3)COC4)C2)n1 [Example 1.226] : 5 to 100 nM

For the molecule shown here, C[C@]1(O)CC[C@@H](N2CC(CC(=O)NCc3cccc(Cl)c3)(NC(=O)c3cc(-c4ccc(F)cc4F)on3)C2)CC1 [Example 1.109] , give the reported IC50.
100 to 1000 nM

Data request, read-out IC50, for CCc1cc(C(C)(C)NC(=O)CC2(NC(=O)c3cc(-c4ccc(F)cc4F)on3)CN([C@H]3CC[C@](C)(O)CC3)C2)ccn1 [Example 1.149]
5 to 100 nM

Query (molecule): CC(C)(NC(=O)CC1(NC(=O)c2cc(-c3ccc(F)cc3F)on2)CN([C@H]2CC[C@@](C)(O)CC2)C1)c1cccnc1 [Example 1.193] ; field requested: IC50
5 to 100 nM

May I ask what IC50 has been recorded for CC(C)(NC(=O)CC1(NC(=O)c2cc(-c3ccc(F)cc3F)on2)CN(C2CC3(CC3)C2)C1)c1ccccn1 [Example 1.015] ?
5 to 100 nM

// IC50 lookup, key: CC[C@H](NC(=O)CC1(NC(=O)c2cc(-c3ccc(F)cc3F)on2)CN(C2CCCCC2)C1)c1ccccc1 [Example 1.304]
5 to 100 nM

Could you tell me which IC50 is on file for COc1ccc(C(C)(C)NC(=O)CC2(NC(=O)c3cc(-c4ccc(F)cc4F)on3)CN([C@H]3CC[C@](C)(O)CC3)C2)c(F)c1 [Example 1.213] ?
100 to 1000 nM

For CC(C)(NC(=O)CC1(NC(=O)c2cc(-c3ccc(F)cc3F)on2)CN(C2CC2)C1)c1ccccn1 [Example 1.313] , what is its reported IC50?
5 to 100 nM

====

- TARGET_ENTITY: CXCR7 (Homo sapiens, UniProt P25106)
- Sequence (P25106 whole entry): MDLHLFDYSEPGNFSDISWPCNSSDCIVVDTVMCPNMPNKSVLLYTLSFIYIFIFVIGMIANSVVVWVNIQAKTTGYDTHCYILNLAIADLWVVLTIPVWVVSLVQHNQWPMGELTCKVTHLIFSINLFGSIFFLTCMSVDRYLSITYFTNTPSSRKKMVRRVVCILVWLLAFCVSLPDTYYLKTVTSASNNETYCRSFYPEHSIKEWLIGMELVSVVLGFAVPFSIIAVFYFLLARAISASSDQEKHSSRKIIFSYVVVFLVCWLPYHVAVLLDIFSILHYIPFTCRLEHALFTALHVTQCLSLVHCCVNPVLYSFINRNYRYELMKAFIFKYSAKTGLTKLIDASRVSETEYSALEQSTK
- PROTOCOL_DETAILS: CXCR7 β-arrestin recruitment assay in CHO-CXCR7 cells (ProLink/EA β-galactosidase complementation), induced by human SDF-1a
- EXPERIMENTAL_PARAMETERS: assay buffer, SDF-1a at EC50 concentration
READOUT_LABEL: IC50

Example results:
CC(C)(O)CN1CC(CC(=O)NC(C)(C)c2cccc(C#N)c2)(NC(=O)c2cc(-c3ccc(F)cc3F)on2)C1 : 5 to 100 nM
CC(C)(NC(=O)CC1(NC(=O)c2cc(-c3ccc(F)cc3F)on2)CN([C@H]2CC[C@@](C)(O)CC2)C1)c1ccncc1 : < 5 nM
COc1ccc(F)c(C(C)(C)NC(=O)CC2(NC(=O)c3cc(-c4ccc(F)cc4F)on3)CN([C@H]3CC[C@@](C)(O)CC3)C2)c1 : 5 to 100 nM

So what does the record say about IC50 for `CC(C)(NC(=O)CC1(NC(=O)c2cc(-c3ccc(F)cc3F)on2)CN([C@H]2CC[C@@](C)(O)CC2)C1)c1cccc(C(F)(F)F)n1` ?
< 5 nM

====

- TARGET_ENTITY: CXCR7 (Homo sapiens)
- PROTOCOL_DETAILS: CXCR7 β-arrestin recruitment assay in CHO-CXCR7 cells (ProLink/EA β-galactosidase complementation), induced by human SDF-1a
- EXPERIMENTAL_PARAMETERS: assay buffer, SDF-1a at EC50 concentration
READOUT_LABEL: IC50

Worked examples follow.
CC(C)(NC(=O)CC1(NC(=O)c2cc(-c3ccc(F)cc3F)on2)CN([C@H]2CC[C@@](C)(O)CC2)C1)c1ccc(F)cn1 [Example 1.207] : 0.1 to 1 µM
CC(C)(NC(=O)CC1(NC(=O)c2cc(-c3ccc(F)cc3F)on2)CN([C@H]2CC[C@@](C)(O)CC2)C1)c1cccc(F)c1 [Example 1.290] : < 0.005 µM

Now turn to the next compound.
Value lookup for IC50; key = CC(C)(NC(=O)CC1(NC(=O)c2cc(-c3ccc(F)cc3F)on2)CN(C2CCC3(CC2)COC3)C1)c1ccc(F)cc1F [Example 1.254]
0.1 to 1 µM
